// provenance: PubChem BioAssay AID1631

Target: Pyruvate kinase PKM (Homo sapiens)
Assay: qHTS Assay for Activators of Human Muscle isoform 2 Pyruvate Kinase; further: nearly all actives have a fitted effect of over 55% in size; further: potency means the concentration at half of the fitted maximal effect
Conditions: purified PKM2, Kinase-Glo ATP luminescence; activation; series mostly up to 57.5 µM
The whole screen tested about 260,000 compounds, of which about 890 (0.34%) were called active. Not shown: some 1% with an inconclusive outcome. What follows is part of a selection rich in actives, with near analogues and random picks from the rest.
ENDPOINT: Potency

Example results:
O=C(/C=C/c1ccc([N+](=O)[O-])o1)NNC(=O)c1ccc(F)cc1: inactive
O=C(NCc1cccs1)C1CCN(S(=O)(=O)c2ccc3c(c2)OCCO3)CC1: 3.98 µM (active)
COC(=O)c1ccccc1NC(=O)C1CCN(C(=O)N2CCOc3ccccc32)CC1: inactive
N#C[C@]1(S(=O)(=O)c2ccccc2)C[C@@H]2ON=C(c3cccc(Br)c3)[C@@H]2C1: inactive
CN1CCCN(S(=O)(=O)c2ccc3c(c2)OCCO3)CC1: 3.55 µM (active)

Qu. Item under review: CCS(=O)(=O)Nc1ccc(C2=NN(C(C)=O)C(c3cccs3)C2)cc1 (centres undefined) . Reported Potency?
Ans. 4.47 µM (active)

Qu. Item under review: Cc1noc(C)c1CSCC(=O)N(CCC(C)C)c1c(N)n(Cc2ccccc2)c(=O)[nH]c1=O . Reported Potency?
Ans. inactive

Qu. Item under review: C/C=C\C=C\C(=O)N1CC2(CC(c3cccc(NC(=O)/C(C)=C\C)c3)=NO2)C[C@H]1C(N)=O (some centres undefined) . Reported Potency?
Ans. 3.55 µM (active)

Qu. Item under review: CN(C(=O)CSc1nncc2ccccc12)C1CCCCC1 . Reported Potency?
Ans. inactive

Qu. Item under review: NC(=S)c1ccc(C(N)=S)o1 . Reported Potency?
Ans. 15.8 µM (active)

* * *

Molecular target: Pyruvate kinase PKM (Homo sapiens)
Test: qHTS Assay for Activators of Human Muscle isoform 2 Pyruvate Kinase; further: nearly all actives have a fitted effect of over 55% in size
Details: purified PKM2, Kinase-Glo ATP luminescence; activation; series mostly up to 57.5 µM
The whole screen tested about 260,000 compounds, of which about 890 (0.34%) were called active. About 1% were inconclusive and are not listed. Calls follow the shape of the dose curve; as a rule, active = well fitted activation curve with a large enough effect; inconclusive = small, poorly fitted or top-dose-only effect; inactive = no such curve, though single readings can be large or run the other way. What follows is part of a selection rich in actives, with near analogues and random picks from the rest.
Give one outcome, nothing more. List: active, inactive

Please review the entries below; each comes with its answer.
COc1ccc(C2=NN(C(C)=O)C(c3ccccc3)C2)cc1 (configuration not stated): inactive
CCC(C)c1ccc(NC(=S)N2CCCC2)cc1 (configuration not stated): inactive
O=C(NCc1ccc2c(c1)OCO2)C1CCCN(S(=O)(=O)c2cccs2)C1 (configuration not stated): inactive
O=C(N/N=C/c1cccc(OCc2ccccc2)c1)c1ccc(Br)o1: inactive
COc1ccc(-n2nc(C(=O)NCC(=O)N3CCN(c4ccccc4OC)CC3)c3ccccc3c2=O)c(OC)c1: inactive

Qu. # lookup: test call for CC(C)c1ccc(S(=O)(=O)N2CCN(C(=O)c3ccc(N4CCCC4)c([N+](=O)[O-])c3)CC2)cc1
Ans. inactive

Qu. # lookup: test call for COc1ccc(N(C(=O)c2snc(C(N)=O)c2N)C(C(=O)NC2CCCC2)c2ccc(C)o2)c(OC)c1 (configuration not stated)
Ans. inactive

Qu. # lookup: test call for CCCOC1CCCN(C(=O)c2cc(COc3cncc(Cl)c3)on2)C1 (configuration not stated)
Ans. inactive

Qu. # lookup: test call for O=c1cc(CO)oc(C(Nc2cccc(C(F)(F)F)c2)c2ccccn2)c1O (configuration not stated)
Ans. active

Qu. # lookup: test call for CCOC(=O)C1(CCOc2ccccc2)CCN(Cc2cc(OC)cc(OC)c2)CC1
Ans. inactive

Qu. # lookup: test call for O=C(NC(=S)Nc1ccc(Cl)cc1Cl)C1CC1
Ans. inactive

Qu. # lookup: test call for COc1ccc(C(=O)CC(=O)c2ccc(C)cc2)c(O)c1
Ans. inactive

Qu. # lookup: test call for O=C(c1ccccc1)N1CCN(C(=O)c2cc3nc(-c4ccccc4)cc(C(F)(F)F)n3n2)CC1
Ans. inactive

Qu. # lookup: test call for CC(=O)OCCN(CCCn1c(-c2ccncc2)nc2ccccc21)c1nc(-c2ccc(C)cc2)cs1
Ans. inactive

Qu. # lookup: test call for COc1ccc(C2CC(c3ccc([N+](=O)[O-])cc3)=NN2C(C)=O)cc1 (configuration not stated)
Ans. active

Qu. # lookup: test call for Oc1ccc(C2Nc3cccc4cccc(c34)N2)cc1
Ans. inactive

Qu. # lookup: test call for CCc1nnc(NC(=O)c2c(O)c3c([nH]c2=O)CCCC3)s1
Ans. inactive

Qu. # lookup: test call for CC(=O)c1cc(C#N)c(SCC(=O)Nc2nccs2)nc1C
Ans. active

Qu. # lookup: test call for O=c1cc(Cn2nnc(-c3ccc(Cl)cc3)n2)nc2sccn12
Ans. active

Qu. # lookup: test call for COc1cccc(Nc2nnc(SCC(=O)N3CC(=O)Nc4ccccc43)s2)c1
Ans. inactive

Qu. # lookup: test call for CC(=O)c1cc2c(cc1NC(=O)Cn1nc(-c3ccc(F)cc3)ccc1=O)OCO2
Ans. inactive

Qu. # lookup: test call for O=C(Nc1cccc(C(F)(F)F)c1)c1cnccn1
Ans. inactive
